MICUTBLP [MICcombo] listing for selected molecules.
system: E. coli 94474; assay type: cell-based, Escherichia coli; settings: UTBLP in combination with novobiocin
Non-standard residues stand in square brackets, D forms with d. Residues, ends and D or L forms follow the SMILES beside them. *: point of attachment. Lys(Me3) = C[N+](C)(C)CCCC[C@H](N)C(=O)O; Lys(Me) = CNCCCC[C@H](N)C(=O)O; Octanoyl = CCCCCCCC(=O)*
Give the value, in units of µg/mL, as a plain number.

Here are 4 molecules together with their reported answers.
[
  {
    "molecule": "CCCCCCCC(=O)NCCCC[C@H](NC(=O)CCCCCCC)C(=O)N[C@@H](CCCC[N+](C)(C)C)C(=O)N[C@@H](CCCC[N+](C)(C)C)C(=O)N[C@@H](CCCC[N+](C)(C)C)C(=O)N[C@@H](CCCC[N+](C)(C)C)C(N)=O [UTBLP 8] (Octanoyl-K(Octanoyl)[Lys(Me3)][Lys(Me3)][Lys(Me3)][Lys(Me3)]-NH2)",
    "recorded.number": 8
  },
  {
    "molecule": "CCCCCCCC(=O)N[C@@H](CCCCN(C)C)C(=O)NCCCN(CCCNC(=O)[C@H](CCCCN(C)C)NC(=O)CCCCCCC)CC(=O)N[C@@H](CCCCN(C)C)C(N)=O [UTBLP 3]",
    "recorded.number": 16
  },
  {
    "molecule": "CCCCCCCC(=O)NCCCC[C@H](NC(=O)CCCCCCC)C(=O)N[C@@H](CCCCN)C(=O)N[C@@H](CCCCN)C(=O)N[C@@H](CCCCN)C(=O)N[C@@H](CCCCN)C(N)=O [UTBLP 5] (Octanoyl-K(Octanoyl)KKKK-NH2)",
    "recorded.number": 4
  },
  {
    "molecule": "CCCCCCCC(=O)NCCCC[C@H](NC(=O)CCCCCCC)C(=O)N[C@@H](CCCCNC)C(=O)N[C@@H](CCCCNC)C(=O)N[C@@H](CCCCNC)C(=O)N[C@@H](CCCCNC)C(N)=O [UTBLP 6] (Octanoyl-K(Octanoyl)[Lys(Me)][Lys(Me)][Lys(Me)][Lys(Me)]-NH2)",
    "recorded.number": 16
  }
]

We now examine a further molecule.
Q: Find MICUTBLP [MICcombo] (E. coli 94474) for the entry CCCCCCCC(=O)N[C@@H](CCCCNC)C(=O)NCCCN(CCCNC(=O)[C@H](CCCCNC)NC(=O)CCCCCCC)CC(=O)N[C@@H](CCCCNC)C(N)=O [UTBLP 2]
Result: 16

* * *

system: E. faecium ATCC 27270; type: cell-based, Enterococcus faecium; conditions: chloramphenicol in combination with the UTBLP
Non-standard residues stand in square brackets, D forms with d. Residues, ends and D or L forms follow the SMILES beside them. *: point of attachment. Lys(Me3) = C[N+](C)(C)CCCC[C@H](N)C(=O)O; Octanoyl = CCCCCCCC(=O)*
recorded.endpoint: MICchloramphenicol [MICcombo]
Answer with the number, then the unit.

Solved cases (3 shown):
[
  {
    "compound": "CCCCCCCC(=O)NCCCC[C@H](NC(=O)CCCCCCC)C(=O)N[C@@H](CCCCN)C(=O)N[C@@H](CCCCN)C(=O)N[C@@H](CCCCN)C(=O)N[C@@H](CCCCN)C(N)=O [UTBLP 5] (Octanoyl-K(Octanoyl)KKKK-NH2)",
    "assayed.target": "E. faecium ATCC 27270",
    "result": "2 µg/mL"
  },
  {
    "compound": "CCCCCCCC(=O)N[C@@H](CCCCN(C)C)C(=O)NCCCN(CCCNC(=O)[C@H](CCCCN(C)C)NC(=O)CCCCCCC)CC(=O)N[C@@H](CCCCN(C)C)C(N)=O",
    "assayed.target": "E. faecium ATCC 27270",
    "result": "8 µg/mL"
  },
  {
    "compound": "CCCCCCCC(=O)N[C@@H](CCCCN)C(=O)NCCCN(CCCNC(=O)[C@H](CCCCN)NC(=O)CCCCCCC)CC(=O)N[C@@H](CCCCN)C(N)=O",
    "assayed.target": "E. faecium ATCC 27270",
    "result": "8 µg/mL"
  }
]

Q: Consider the compound shown here: CCCCCCCC(=O)NCCCC[C@H](NC(=O)CCCCCCC)C(=O)N[C@@H](CCCC[N+](C)(C)C)C(=O)N[C@@H](CCCC[N+](C)(C)C)C(=O)N[C@@H](CCCC[N+](C)(C)C)C(=O)N[C@@H](CCCC[N+](C)(C)C)C(N)=O [UTBLP 8] (Octanoyl-K(Octanoyl)[Lys(Me3)][Lys(Me3)][Lys(Me3)][Lys(Me3)]-NH2) What is its recorded MICchloramphenicol [MICcombo]?
Result: 4 µg/mL

* * *

The reader will find reported MICantibiotic [MICcombo] values listed item by item below.
tested on: E. coli ATCC 25922; format: cell-based, Escherichia coli; settings: niclosamide in combination with the UTBLP
Non-standard residues stand in square brackets, D forms with d. Residues, ends and D or L forms follow the SMILES beside them. *: point of attachment. Lys(Me) = CNCCCC[C@H](N)C(=O)O; Octanoyl = CCCCCCCC(=O)*
Field format: number, assumed µg/mL, no unit text.

Q: Fill in the recorded MICantibiotic [MICcombo] for this compound, with E. coli ATCC 25922 as test system: CCCCCCCC(=O)N[C@@H](CCCCNC)C(=O)NCCCN(CCCNC(=O)[C@H](CCCCNC)NC(=O)CCCCCCC)CC(=O)N[C@@H](CCCCNC)C(N)=O [UTBLP 2]
Result: 2

Q: Request body: readout MICantibiotic [MICcombo], system E. coli ATCC 25922, query CCCCCCCC(=O)NCCCC[C@H](NC(=O)CCCCCCC)C(=O)N[C@@H](CCCCNC)C(=O)N[C@@H](CCCCNC)C(=O)N[C@@H](CCCCNC)C(=O)N[C@@H](CCCCNC)C(N)=O [UTBLP 6] (Octanoyl-K(Octanoyl)[Lys(Me)][Lys(Me)][Lys(Me)][Lys(Me)]-NH2) . Return the value.
Result: 2

Q: For E. coli ATCC 25922, provide MICantibiotic [MICcombo] of CCCCCCCC(=O)NCCCC[C@H](NC(=O)CCCCCCC)C(=O)N[C@@H](CCCCN)C(=O)N[C@@H](CCCCN)C(=O)N[C@@H](CCCCN)C(=O)N[C@@H](CCCCN)C(N)=O [UTBLP 5] (Octanoyl-K(Octanoyl)KKKK-NH2) please.
Result: 2

* * *

Known MICUTBLP of a selection of compounds
test system: A. baumannii AB027; assay type: cell-based, Acinetobacter baumannii; conditions: UTBLP alone, plate with rifampicin
Non-standard residues stand in square brackets, D forms with d. Residues, ends and D or L forms follow the SMILES beside them. *: point of attachment. Lys(Me2) = CN(C)CCCC[C@H](N)C(=O)O; Octanoyl = CCCCCCCC(=O)*
Your answer should be a plain number; it is taken to be in µg/mL.

Worked examples, 2 compounds total:
[
  {
    "compound": "CCCCCCCC(=O)NCCCC[C@H](NC(=O)CCCCCCC)C(=O)N[C@@H](CCCCN)C(=O)N[C@@H](CCCCN)C(=O)N[C@@H](CCCCN)C(=O)N[C@@H](CCCCN)C(N)=O [UTBLP 5] (Octanoyl-K(Octanoyl)KKKK-NH2)",
    "recorded.endpoint": "MICUTBLP",
    "recorded.number": 128
  },
  {
    "compound": "CCCCCCCC(=O)N[C@@H](CCCCN)C(=O)NCCCN(CCCNC(=O)[C@H](CCCCN)NC(=O)CCCCCCC)CC(=O)N[C@@H](CCCCN)C(N)=O",
    "recorded.endpoint": "MICUTBLP",
    "recorded.number": 128
  }
]

Q: # MICUTBLP lookup, item CCCCCCCC(=O)NCCCC[C@H](NC(=O)CCCCCCC)C(=O)N[C@@H](CCCCN(C)C)C(=O)N[C@@H](CCCCN(C)C)C(=O)N[C@@H](CCCCN(C)C)C(=O)N[C@@H](CCCCN(C)C)C(N)=O [UTBLP 7] (Octanoyl-K(Octanoyl)[Lys(Me2)][Lys(Me2)][Lys(Me2)][Lys(Me2)]-NH2)
Result: 128

* * *

Test system: A. baumannii ATCC 17978
Type: cell-based, Acinetobacter baumannii
Conditions: chloramphenicol in combination with the UTBLP
Method: The synergy of the UTBLPs with various antibiotics was assessed using checkerboard assay as previously described. […] Growth in the form of turbidity was confirmed using an EMax Plus microplate reader (Molecular Devices, Union City, CA, USA) at 590 nm. […] The FIC value is calculated by dividing the MIC of the agents in combination by the MIC of the agent alone. […]
Residues, ends and D or L forms follow the SMILES beside them. *: point of attachment. Octanoyl = CCCCCCCC(=O)*
recorded.endpoint: MICantibiotic [MICcombo] (µg/mL)
Report as a plain number; the unit µg/mL is understood.

[
  {
    "compound": "CCCCCCCC(=O)NCCCC[C@H](NC(=O)CCCCCCC)C(=O)N[C@@H](CCCCN)C(=O)N[C@@H](CCCCN)C(=O)N[C@@H](CCCCN)C(=O)N[C@@H](CCCCN)C(N)=O [UTBLP 5] (Octanoyl-K(Octanoyl)KKKK-NH2)",
    "unit.string": "µg/mL",
    "recorded.number": 32
  },
  {
    "compound": "CCCCCCCC(=O)N[C@@H](CCCCNC)C(=O)NCCCN(CCCNC(=O)[C@H](CCCCNC)NC(=O)CCCCCCC)CC(=O)N[C@@H](CCCCNC)C(N)=O",
    "unit.string": "µg/mL",
    "recorded.number": 64
  },
  {
    "compound": "CCCCCCCC(=O)N[C@@H](CCCCN(C)C)C(=O)NCCCN(CCCNC(=O)[C@H](CCCCN(C)C)NC(=O)CCCCCCC)CC(=O)N[C@@H](CCCCN(C)C)C(N)=O",
    "unit.string": "µg/mL",
    "recorded.number": 64
  }
]

Let us examine a further case.
Q: For the compound shown here, CCCCCCCC(=O)N[C@@H](CCCCN)C(=O)NCCCN(CCCNC(=O)[C@H](CCCCN)NC(=O)CCCCCCC)CC(=O)N[C@@H](CCCCN)C(N)=O , give the reported MICantibiotic [MICcombo].
Result: 32

Data provenance: paper PMC8963254
